Reference source for all entries: the supplement of paper PMC10307832

# Tested on: IA-LM
# methodSummary: relative viability (nuclei count vs DMSO), 5 days (fraction); higher = more cells survive
# cond: first compound 0.1 µM
outcomeMeasure: relative viability
Reply with the value as a number alone.

Solved cases (4 shown):
compound	relative viability
CCN(CC)CCCCNc1ncc2cc(-c3cc(OC)cc(OC)c3)c(NC(=O)NC(C)(C)C)nc2n1 + CC1(C)CCC(c2ccc(Cl)cc2)=C(CN2CCN(c3ccc(C(=O)NS(=O)(=O)c4ccc(N[C@H](CCN5CCOCC5)CSc5ccccc5)c(S(=O)(=O)C(F)(F)F)c4)cc3)CC2)C1 [Navitoclax] (partner 0.5 µM)	0.969
CCN(CC)CCCCNc1ncc2cc(-c3cc(OC)cc(OC)c3)c(NC(=O)NC(C)(C)C)nc2n1 + CC(C)C[C@H](NC(=O)[C@H](Cc1ccccc1)NC(=O)c1cnccn1)B(O)O [Bortezomib] (partner 0.002 µM)	0.977
O=c1cc(N2CCOCC2)oc2c(-c3cccc4c3sc3ccccc34)cccc12 + CS(=O)(=O)CCNCc1ccc(-c2ccc3ncnc(Nc4ccc(OCc5cccc(F)c5)c(Cl)c4)c3c2)o1 [Lapatinib] (partner 2 µM)	0.663
O=c1cc(N2CCOCC2)oc2c(-c3cccc4c3sc3ccccc34)cccc12 + Cc1nc(NC(=O)N2CCC[C@H]2C(N)=O)sc1-c1ccnc(C(C)(C)C(F)(F)F)c1 [Alpelisib] (partner 2 µM)	0.828

Req: Tell me its relative viability on IA-LM: O=c1cc(N2CCOCC2)oc2c(-c3cccc4c3sc3ccccc34)cccc12 + C[C@@H](Oc1cc(-c2cnn(C3CCNCC3)c2)cnc1N)c1c(Cl)ccc(F)c1Cl [Crizotinib] (partner 1 µM)
Resp: 0.683

Req: Tell me its relative viability on IA-LM: CCN(CC)CCCCNc1ncc2cc(-c3cc(OC)cc(OC)c3)c(NC(=O)NC(C)(C)C)nc2n1 + COc1cc2c(Oc3ccc(NC(=O)C4(C(=O)Nc5ccc(F)cc5)CC4)cc3F)ccnc2cc1OCCCN1CCOCC1 [Foretinib] (partner 0.25 µM)
Resp: 1.17

Req: Tell me its relative viability on IA-LM: O=c1cc(N2CCOCC2)oc2c(-c3cccc4c3sc3ccccc34)cccc12 + CS(=O)(=O)N1CCN(Cc2cc3nc(-c4cccc5[nH]ncc45)nc(N4CCOCC4)c3s2)CC1 [Pictilisib] (partner 1 µM)
Resp: 0.271
